Values were extracted from PubChem BioAssay (NCI).

Reported growth values follow for various compounds
system: RXF 393 renal; experiment: NCI-60 one-dose screen, 48 h (100 = growth as untreated, 0 = no growth, -100 = all killed); settings: 10 µM unless noted
The panel holds about 83,000 compounds, 20% with a hit somewhere; the sample as a whole holds those more often.
Hi! Could you send only the number? It should be in %, unit omitted.

Here's what some known entries look like.
COMPOUND	growth (%)
N#CC1=C(/N=C/c2ccccc2)Oc2c(ccc3ccccc23)C1c1ccc([N+](=O)[O-])cc1 (centres undefined)	98.2
CC1(C)CC[C@]23CC[C@]4(C)[C@H](CC[C@@H]5[C@@]6(C)CCCNC(C)(C)[C@@H]6CC[C@]54C)[C@H]2[C@H]1OC3	-65.3

IN: Report growth for O=C(CCN1CCCC1)Nc1ccc2c(NCCCCc3ccccc3)c3ccccc3nc2c1 please.
OUT: 7.61

IN: I'd like to know its growth. The compound in question is COCCCN1CC(O)=C(c2nc(-c3ccc(C)cc3)cs2)C1=N
OUT: 94.3

IN: So what's the measured growth for this one? CCOc1ccc(/C=N/Nc2cc(C)nc3ccc(Br)cc23)cc1
OUT: 85.8

IN: Using the record for CCCCCCOc1ccc(/C=N/Nc2cc(C)nc3ccc(Cl)cc23)cc1 , report its growth.
OUT: -94.3

IN: growth lookup needed for COc1cc2nc(-c3ccc(Cl)cc3)cc(OCCCN3CCOCC3)c2cc1OC , thanks.
OUT: 28.7

IN: Data request, read-out growth, for Cn1c2ccccc2c2c3c(c4c5ccccc5n(C)c4c21)C(=O)OC3
OUT: 101

IN: Fill blank: measured growth of the compound O=C1Nc2cc(-c3ccc(NC(=O)c4ccccc4)cc3)ccc2/C1=C/c1ccc[nH]1 is ____.
OUT: 111

###

system: SK-MEL-28 melanoma; assay: NCI-60 one-dose screen, 48 h (100 = growth as untreated, 0 = no growth, -100 = all killed); settings: 10 µM unless noted
This is part of a sample that, as a whole, favours compounds with a hit. Of some 83,000 tested, about 20% had one in any assay.
Reported values of growth for individual entries
Reply with just the number (in %).

Example results:
COMPOUND	REPORTED_MEASUREMENT
CC(C)(C)c1cc(C=O)cc(C(C)(C)C)c1O	111
COc1cc(CC(=O)n2ncc3ccc(N)cc32)cc(OC)c1OC	99.9
NC(=O)Nc1ccc(-n2cnc3cc(-c4ccc(O)cc4)ccc32)cc1	100

IN: Which growth value belongs to COc1cc2c(=O)n(CCN(C)C)c3c4cc5c(cc4ccc3c2cc1OC)OCO5 ?
OUT: -33.9

IN: Need growth, item Nc1c(S(=O)(=O)O)cc2c3c(cccc13)C(=O)OC2=O
OUT: 115

IN: Please look up its growth: CSc1nc2sc3cccc(Cl)c3n2c(=N)c1C#N
OUT: 115

###

tested on: NCI-H226 lung; assay: NCI-60 one-dose screen, 48 h; conditions: 10 µM unless noted
The panel holds about 83,000 compounds, 20% with a hit somewhere; the sample as a whole holds those more often. The source made the active and inactive calls. The calls were made as follows: active = growth percent below 10; inactive = the rest.
The reply should be one of these categories: active, inactive

COMPOUND	ASSIGNED_CLASS
O=S(=O)(NCCCNc1nccc(-c2c(-c3cccc(O)c3)nc3occn23)n1)c1ccc(Cl)cc1	inactive
COc1ccc(/C=C/c2nc(Nc3ccc(Cl)cc3)c3ccccc3n2)cc1	inactive
Cc1cc2c(C(=O)NCC#N)cccc2n1-c1nc2c(c(NCc3ccccc3)n1)CCCC2	active

Read the next record carefully.
IN: What outcome does the record of this test show for N/C(=N\C(N)=N\c1nc2ccccc2s1)c1ccnc(Br)c1 ?
OUT: inactive

###

test system: T-47D breast; test: NCI-60 one-dose screen, 48 h (100 = growth as untreated, 0 = no growth, -100 = all killed); conditions: 10 µM unless noted
About 83,000 compounds went through this panel and 20% of them were active in at least one assay; those are over-represented in the sample as a whole.
Label scheme for growth: class 0 (below 40%), class 1 (40% to below 70%), class 2 (70% or more)

Take a look at these entries with their results.
COMPOUND	ASSIGNED_CLASS
COc1cc2nc(-c3ccc(Cl)cc3)cc(OCCCN3CCCC3)c2cc1OC	class 0
COc1ccc(C(=O)c2nc3ccccc3n2CC(=O)c2ccc(Cl)cc2)cc1	class 0
ClC1=C(Br)C(Br)(Br)C(=C(Br)Br)C1(Br)Br	class 2
Oc1ccc(OCCOc2ccc(O)cc2)cc1	class 2
Cc1cc2cc3ccc(N(C)C)cc3nc2cc1N	class 0
COc1ccc(C(=O)/C=C/c2cc3ccccc3n3nnnc23)cc1	class 2
c1ccc2c(-c3c[nH]c4ccccc34)c3c(cc2c1)[nH]c1ccccc13	class 0
Cc1cc2nc3c4cccc(O)c4n(CCN(C)C)c3nc2cc1C	class 1
O=C(Nc1ccccc1C(=O)N/N=C(\c1ccccc1)c1ccccn1)c1ccc(F)cc1	class 0
O=C(Nc1ccc(Cl)cc1)c1cc(NCc2cc(O)ccc2O)ccc1O	class 1

IN: Which class does Cn1c2ccccc2c2c3c(c4c5ccccc5n(C)c4c21)C(=O)OC3 fall in?
OUT: class 2

IN: Kindly identify the class of CC(=O)Nc1ccc(-n2cnc3cc(-c4ccc(OCCN5CCCCC5)cc4)ccc32)cc1 .
OUT: class 2

IN: Any idea which band Cn1nc(CC#N)c2c(=N)n(N)cnc21 is in?
OUT: class 2

IN: Category of N#C/C(=C\c1ccc([N+](=O)[O-])s1)c1nc2cc(Cl)ccc2s1 , please.
OUT: class 1

###

system: UACC-257 melanoma; experiment: NCI-60 one-dose screen, 48 h (100 = growth as untreated, 0 = no growth, -100 = all killed); details: 10 µM unless noted
Compounds without any hit were thinned out: in the full panel of roughly 83,000, 20% have a hit.
Entries and their measured growth follow.
Kindly answer with a numeric value in %, unit omitted.

Below, each entry is followed by its recorded growth result.
COMPOUND	ASSAY_SYSTEM	REPORTED_MEASUREMENT
CCCCCN1C=C/C(=C\C(=O)N(C)c2ccccc2Br)c2ccccc21	UACC-257 melanoma	93
O=C(/C=C(/C=C/c1csc2ccccc12)OB(F)F)/C=C/c1csc2ccccc12	UACC-257 melanoma	57.7
c1ccc(-c2cn3c(ccc4ccccc43)n2)cc1	UACC-257 melanoma	78.9

Please examine the following record next.
IN: I have this compound here, Cc1ccc(C(=O)/C(=C\c2ccc([N+](=O)[O-])cc2)S(=O)Cc2ccc(F)cc2)cc1 (configuration not stated) , and I need its recorded growth.
OUT: 91.6

###

tested on: UACC-257 melanoma; test: NCI-60 one-dose screen, 48 h (100 = growth as untreated, 0 = no growth, -100 = all killed); conditions: 10 µM unless noted
This is part of a sample that, as a whole, favours compounds with a hit. Of some 83,000 tested, about 20% had one in any assay.
Assign met whenever growth does not fall below 90%; assign not met whenever it does.

Use the examples below as a reference point.
MOLECULE	ASSAY_SYSTEM	ASSIGNED_CLASS
N#C/C(=C\c1ccc(Cl)cc1)n1nnc2cc(F)c(F)cc21	UACC-257 melanoma	not met
Cc1cc2nc3c4cccc(O)c4n(CCN(C)C)c3nc2cc1C	UACC-257 melanoma	not met
COc1cc(C2C3=C(COC3=O)N(CCO)c3cc4c(cc32)OCO4)cc(OC)c1OC (centres undefined)	UACC-257 melanoma	not met
O=C(CSc1nc2ccccc2[nH]1)NCc1ccccc1	UACC-257 melanoma	met
COc1cc2c(c(O)c1Cl)C(=O)c1c(O)cc(C[C@H](C)O)cc1[C@H]2[C@H]1c2cc(C[C@H](C)O)cc(O)c2C(=O)c2c1cc(OC)c(Cl)c2O	UACC-257 melanoma	not met
c1ccc2c(-c3c[nH]c4ccccc34)c3c(cc2c1)[nH]c1ccccc13	UACC-257 melanoma	not met
Cc1cnc(C(=O)Nc2nc3ccc(S(=O)(=O)Nc4ccc(C5(C(F)(F)F)CC5)cc4)cc3[nH]2)cn1	UACC-257 melanoma	not met
Cc1ccc(S(=O)(=O)Nn2c3c(cc(-c4nc5ccccc5s4)c2=O)CCCCCC3)cc1	UACC-257 melanoma	met

IN: Would you say CCOC(=O)CSc1nc2ccccc2c(=O)n1Cc1ccc(S(N)(=O)=O)cc1 shows growth at minimum 90%?
OUT: met

IN: Is growth at least 90%? Consider O=Cc1ccc(-c2cn3ccnc3c(-c3ccc4ncn(Cc5ccccc5)c4c3)n2)cc1
OUT: met

IN: Please indicate if the recorded growth for N=C(N)c1ccc(OCCCCCCCCCCOc2ccc(C(=N)N)cc2)cc1 meets or exceeds 90%.
OUT: not met

IN: Is the recorded value of growth equal to or greater than 90% for this molecule? COc1ccc(CCn2cncc2-c2c[nH]c3ccccc23)cc1
OUT: met

IN: Reported growth at or above 90%? COc1ccc(C(=O)c2nc3ccccc3n2CC(=O)c2ccc(Cl)cc2)cc1
OUT: not met

IN: Is the recorded value of growth equal to or greater than 90% for this molecule? N#Cc1c(NC(=O)NCc2ccccc2)sc2c1CCCCC2
OUT: not met

IN: Determine whether measured growth meets or exceeds 90% for Cc1nn(-c2ccccc2)c(Oc2c(Cl)cccc2Cl)c1/C=N/N=c1\sc2ccccc2n1C
OUT: not met

IN: Identify whether the reported growth of the following molecule is 90% or greater: COc1cc(-c2n/c(=C\c3c(O)[nH]c4ccc(Cl)cc34)cc3c2=Nc2ccccc2-3)ccc1F
OUT: not met

IN: Does the molecule O=C(c1nc2ccccc2[nH]1)C1C(c2ccc(Br)cc2)C2CC3CCCC[C@H]3N2[C@@]12C(=O)Nc1cc(Cl)ccc12 (some centres undefined) have recorded growth that is 90% or more?
OUT: not met
